Answer each item with its documented half-life at 100 µM.
assay comment: Chemical stability in PBS buffer solution (pH 7.4)
Assay type: physicochemical
reported conditions: 37° C., read-out: Chemical stability t1/2
Method: The compounds of the present invention (A-15, A-16, A-19, A-21 to A-25, A-28, A-29, A-36 and A-69) were each dissolved in DMSO to a concentration of 10 mM and then mixed with a PBS buffer solution (pH 7.4) to prepare as a solution having a concentration of 500 μM (5% DMSO). MPS, used as a standard material, was also prepared as a solution having a concentration of 500 μM in a PBS buffer solution. […]
Numbered stars: 1 amine (or outer) side, 2 acyl side, 3 side chain; on linkers, the order of the positions; unused ones are H or OH. Square brackets hold non-standard residues; d marks the D form. Peptide text beside a SMILES is read from it. * marks the point of attachment. ξ: configuration not given here. X3 = O=C(O)c1cc2c(O[C@@H]3O[C@H](CO)[C@H](O)[C@H](O)[C@H]3O)ccc(COC(=O)*)c2[se]1; Dil(5ξ) = CCC(C)[C@@H]([C@@H](CC(=O)[*:2])OC)N(C)[*:1]; Dolaproine = CO[C@@H]([C@@H]1CCCN1)[C@@H](C)C(=O)O; NMeV = CN[C@H](C(=O)O)C(C)C; ξF = NC(Cc1ccccc1)C(=O)O

INSERT INTO measurements (compound, observed) VALUES
  ('CCC(C)[C@@H]([C@@H](CC(=O)N1CCC[C@H]1[C@H](OC)[C@@H](C)C(=O)NC(Cc1ccccc1)C(=O)O)OC)N(C)C(=O)[C@@H](NC(=O)[C@H](C(C)C)N(C)C(=O)OCc1ccc(O[C@@H]2O[C@H](CO)[C@H](O)[C@H](O)[C@H]2O)c2cc(C(=O)O)[se]c12)C(C)C (some centres unmarked) [Compound A-29] (X3-[NMeV]V[Dil(5ξ)][Dolaproine][ξF]-OH)', '> 168 h');

Next, consider the following compound.
Query string: Need half-life at 100 µM of CCC(C)[C@@H]([C@@H](CC(=O)N1CCC[C@H]1[C@H](OC)[C@@H](C)C(=O)NC(Cc1ccccc1)C(=O)O)OC)N(C)C(=O)[C@@H](NC(=O)[C@H](C(C)C)N(C)C(=O)OCc1ccc(O[C@@H]2O[C@H](CO)[C@H](O)[C@H](O)[C@H]2O)c2cc(Cn3cc(COCCOCCOCCOC)nn3)sc12)C(C)C (some centres unmarked) , thanks.
Result string: > 168 h

---

assay comment: Mouse plasma stability (Method 1)
Format: in vitro ADME
reported conditions: Method 1 (mouse plasma), 37° C.; read-out: Plasma stability t1/2
parameter: half-life at 300 µM

Query string: Need half-life at 300 µM of "CC[C@H](C)[C@@H]([C@@H](CC(=O)N1CCC[C@H]1[C@H](OC)[C@@H](C)C(=O)N[C@H](C)[C@@H](O)c1ccccc1)OC)N(C)C(=O)[C@@H](NC(=O)[C@H](C(C)C)N(C)C(=O)OCc1ccc(O[C@@H]2O[C@H](C(=O)O)[C@@H](O)[C@H](O)[C@H]2O)c2cc(Cn3cc(COCCOCCOCCOC)nn3)[se]c12)C(C)C" , thanks.
Result string: > 168 h

---

assay comment: Rat plasma stability (Method 3)
Type: in vitro ADME
reported conditions: Method 3 (rat plasma), 37° C.; read-out: Plasma stability t1/2
Numbered stars: 1 amine (or outer) side, 2 acyl side, 3 side chain; on linkers, the order of the positions; unused ones are H or OH. Square brackets hold non-standard residues; d marks the D form. Peptide text beside a SMILES is read from it. * marks the point of attachment. ξ: configuration not given here. X1 = O=C(O)CCCc1cc2c(O[C@@H]3O[C@H](CO)[C@H](O)[C@H](O)[C@H]3O)ccc(COC(=O)*)c2o1; Dil(5ξ) = CCC(C)[C@@H]([C@@H](CC(=O)[*:2])OC)N(C)[*:1]; Dolaproine = CO[C@@H]([C@@H]1CCCN1)[C@@H](C)C(=O)O; NMeV = CN[C@H](C(=O)O)C(C)C; ξF = NC(Cc1ccccc1)C(=O)O
parameter: half-life at 300 µM

INSERT INTO measurements (compound, observed) VALUES
  ('CC[C@H](C)[C@@H]([C@@H](CC(=O)N1CCC[C@H]1[C@H](OC)[C@@H](C)C(=O)N[C@H](C)[C@@H](O)c1ccccc1)OC)N(C)C(=O)[C@@H](NC(=O)[C@H](C(C)C)N(C)C(=O)OCc1ccc(O[C@@H]2O[C@H](C(=O)O)[C@@H](O)[C@H](O)[C@H]2O)c2cc(Cn3cc(COCCOCCOCCOC)nn3)[se]c12)C(C)C [Compound A-69]', '> 168 h');

Next, consider the following compound.
Query string: Need half-life at 300 µM of CCC(C)[C@@H]([C@@H](CC(=O)N1CCC[C@H]1[C@H](OC)[C@@H](C)C(=O)NC(Cc1ccccc1)C(=O)O)OC)N(C)C(=O)[C@@H](NC(=O)[C@H](C(C)C)N(C)C(=O)OCc1ccc(O[C@@H]2O[C@H](CO)[C@H](O)[C@H](O)[C@H]2O)c2cc(CCCC(=O)O)oc12)C(C)C (some centres unmarked) [Compound A-22] (X1-[NMeV]V[Dil(5ξ)][Dolaproine][ξF]-OH) , thanks.
Result string: > 168 h

---

assay comment: Chemical stability in PBS buffer solution (pH 7.4)
Format: physicochemical
reported conditions: 37° C., read-out: Chemical stability t1/2
Description: The compounds of the present invention (A-15, A-16, A-19, A-21 to A-25, A-28, A-29, A-36 and A-69) were each dissolved in DMSO to a concentration of 10 mM and then mixed with a PBS buffer solution (pH 7.4) to prepare as a solution having a concentration of 500 μM (5% DMSO). MPS, used as a standard material, was also prepared as a solution having a concentration of 500 μM in a PBS buffer solution. […]
Answer each item with its documented half-life at 100 µM.

Past entries and their recorded results:
INSERT INTO results (compound, observed) VALUES
  ('CC[C@H](C)[C@@H]([C@@H](CC(=O)N1CCC[C@H]1[C@H](OC)[C@@H](C)C(=O)N[C@H](C)[C@@H](O)c1ccccc1)OC)N(C)C(=O)[C@@H](NC(=O)[C@H](C(C)C)N(C)C(=O)OCc1ccc(O[C@@H]2O[C@H](C(=O)O)[C@@H](O)[C@H](O)[C@H]2O)c2cc(Cn3cc(COCCOCCOCCOC)nn3)[se]c12)C(C)C', '> 168 h'),
  ('C#CCOCCOCCOCCOCC(=O)NCc1cc2c(O[C@@H]3O[C@H](CO)[C@H](O)[C@H](O)[C@H]3O)ccc(COC(=O)N(C)[C@H](C(=O)N[C@H](C(=O)N(C)[C@@H](C(C)CC)[C@@H](CC(=O)N3CCC[C@H]3[C@H](OC)[C@@H](C)C(=O)NC(Cc3ccccc3)C(=O)O)OC)C(C)C)C(C)C)c2o1 (stereo partly drawn)', '> 168 h');

Next, consider the following compound.
Query string: Need half-life at 100 µM of "CC[C@H](C)[C@@H]([C@@H](CC(=O)N1CCC[C@H]1[C@H](OC)[C@@H](C)C(=O)N[C@H](C)[C@@H](O)c1ccccc1)OC)N(C)C(=O)[C@@H](NC(=O)[C@H](C(C)C)N(C)C(=O)OCc1ccc(O[C@@H]2O[C@H](CO)[C@H](O)[C@H](O)[C@H]2O)c2cc(CCC(=O)NCCOCCOCCOCCN=[N+]=[N-])oc12)C(C)C" , thanks.
Result string: > 168 h

---

assay comment: Mouse plasma stability (Method 1)
Format: in vitro ADME
reported conditions: Method 1 (mouse plasma), 37° C.; read-out: Plasma stability t1/2
Numbered stars: 1 amine (or outer) side, 2 acyl side, 3 side chain; on linkers, the order of the positions; unused ones are H or OH. Square brackets hold non-standard residues; d marks the D form. Peptide text beside a SMILES is read from it. * marks the point of attachment. ξ: configuration not given here. X1 = O=C(O)CCCc1cc2c(O[C@@H]3O[C@H](CO)[C@H](O)[C@H](O)[C@H]3O)ccc(COC(=O)*)c2o1; X2 = O=C(O)CCc1cc2c(O[C@@H]3O[C@H](CO)[C@H](O)[C@H](O)[C@H]3O)ccc(COC(=O)*)c2s1; Dil(5ξ) = CCC(C)[C@@H]([C@@H](CC(=O)[*:2])OC)N(C)[*:1]; Dolaproine = CO[C@@H]([C@@H]1CCCN1)[C@@H](C)C(=O)O; NMeV = CN[C@H](C(=O)O)C(C)C; ξF = NC(Cc1ccccc1)C(=O)O
Answer each item with its documented half-life at 300 µM.

Past entries and their recorded results:
INSERT INTO assay_data (compound, observed) VALUES
  ('CC[C@H](C)[C@@H]([C@@H](CC(=O)N1CCC[C@H]1[C@H](OC)[C@@H](C)C(=O)N[C@H](C)[C@@H](O)c1ccccc1)OC)N(C)C(=O)[C@@H](NC(=O)[C@H](C(C)C)N(C)C(=O)OCc1ccc(O[C@@H]2O[C@H](CO)[C@H](O)[C@H](O)[C@H]2O)c2cc(CCC(=O)NCCOCCOCCOCCN=[N+]=[N-])oc12)C(C)C [Compound A-25]', '> 7 days'),
  ('CCC(C)[C@@H]([C@@H](CC(=O)N1CCC[C@H]1[C@H](OC)[C@@H](C)C(=O)NC(Cc1ccccc1)C(=O)O)OC)N(C)C(=O)[C@@H](NC(=O)[C@H](C(C)C)N(C)C(=O)OCc1ccc(O[C@@H]2O[C@H](CO)[C@H](O)[C@H](O)[C@H]2O)c2cc(CCCC(=O)O)oc12)C(C)C (stereo partly drawn) [Compound A-22] (X1-[NMeV]V[Dil(5ξ)][Dolaproine][ξF]-OH)', '> 7 days');

Query string: Need half-life at 300 µM of CCC(C)[C@@H]([C@@H](CC(=O)N1CCC[C@H]1[C@H](OC)[C@@H](C)C(=O)NC(Cc1ccccc1)C(=O)O)OC)N(C)C(=O)[C@@H](NC(=O)[C@H](C(C)C)N(C)C(=O)OCc1ccc(O[C@@H]2O[C@H](CO)[C@H](O)[C@H](O)[C@H]2O)c2cc(CCC(=O)O)sc12)C(C)C (stereo partly drawn) [Compound A-16] (X2-[NMeV]V[Dil(5ξ)][Dolaproine][ξF]-OH) , thanks.
Result string: > 7 days
